Origin of the recorded values: patent US20250313574A1

# measurementTarget: Recombinant human CD33 protein (Homo sapiens (Human), UniProt P20138)
# Sequence (P20138 18-259): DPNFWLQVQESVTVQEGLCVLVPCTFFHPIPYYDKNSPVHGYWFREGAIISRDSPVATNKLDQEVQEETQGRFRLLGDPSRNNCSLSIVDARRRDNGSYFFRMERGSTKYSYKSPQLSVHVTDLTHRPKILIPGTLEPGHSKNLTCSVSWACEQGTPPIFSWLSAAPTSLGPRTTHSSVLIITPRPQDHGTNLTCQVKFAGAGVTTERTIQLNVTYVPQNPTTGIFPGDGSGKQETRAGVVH
# assayComment: CD33 competitive binding assay for HTS drug screen (fluorescent multivalent sialic acid probe)
experimentalEndpoint: log10 EC50 (log10 of the value in nM)

INSERT INTO assay_data (compound, measurement) VALUES
  ('CC(=O)N[C@H]1[C@H]([C@H](O)[C@H](O)CNC(=O)c2cc(C)c(O)c(C)c2)O[C@@](CCN2CCOC[C@@]23CCN(C(=O)C(C)(C)Oc2ccccc2)C3)(C(=O)O)C[C@@H]1O', 3.29),
  ('CC(=O)N[C@H]1[C@H]([C@H](O)[C@H](O)CNC(=O)c2cc(C)c(O)c(C)c2)O[C@@](CCN2CCC23CCN(C(=O)OC(C)(C)C)C3)(C(=O)O)C[C@@H]1O (stereo partly shown)', 2.21),
  ('CC(=O)N[C@H]1[C@H]([C@H](O)[C@H](O)CNC(=O)c2cc(C)c(O)c(C)c2)O[C@@](CCN2CCOC[C@@]23CCN(C(=O)c2ccc4[nH]c(C(C)O)nc4c2)C3)(C(=O)O)C[C@@H]1O (stereo partly shown)', 3.23),
  ('C=CC[C@]1(NCC[C@]2(C(=O)O)C[C@H](O)[C@@H](NC(C)=O)[C@H]([C@H](O)[C@H](O)CNC(=O)c3cc(C)c(O)c(C)c3)O2)CCN(C(=O)OC(C)(C)C)C1', 3.21),
  ('Cc1cc2cc(C)c1OCCO[C@@H]1C[C@H](OC/C=C/CC[C@]3(C(=O)O)C[C@H](O)[C@@H](NC(=O)Cn4cc(C5CCCCC5)nn4)[C@@H](O3)[C@H](O)[C@H](O)CNC2=O)N(C(=O)C2CCCOC2)C1 (stereo partly shown)', 3.97),
  ('CC(=O)N[C@H]1[C@H]([C@H](O)[C@](C)(O)CNC(=O)c2cc(C)c(O)c(C)c2)O[C@@](CCN2CCOC[C@@]23CCN(C(=O)OC(C)(C)C)C3)(C(=O)O)C[C@@H]1O', 2.76),
  ('CC(=O)N[C@H]1[C@H]2O[C@](C(=O)O)(C/C=C/c3cccc(c3)[C@@H](NC(=O)[C@@H]3CCCOC3)CCCCOc3c(C)cc(cc3C)C(=O)NC[C@@H](O)[C@H]2O)C[C@@H]1O', 3.72),
  ('CC(=O)NC1[C@H]([C@H](O)[C@H](O)CNC(=O)c2cc(C)c(O)c(C)c2)O[C@@](CC(=O)N2CCOC[C@@]23CCN(C(=O)OC(C)(C)C)C3)(C(=O)O)C[C@@H]1O (stereo partly shown)', 2.21),
  ('CC(=O)N[C@H]1[C@H]([C@H](O)[C@H](O)CNC(=O)c2cc(C)c(O)c(C)c2)O[C@@](CCN2CCOC[C@@]23CCN(C(=O)C2CC4(C2)CC(F)(F)C4)C3)(C(=O)O)C[C@@H]1O', 2.09);

* * *

The entries below are paired with their reported EC50.
# measurementTarget: Recombinant human CD33 protein (Homo sapiens (Human), UniProt P20138)
# assayComment: CD33 competitive binding assay for HTS drug screen (fluorescent multivalent sialic acid probe)
experimentalEndpoint: EC50 (nM)

INSERT INTO assay_data (molecule, unitabbrev, measurement) VALUES
  ('CC(=O)N[C@H]1[C@H]([C@H](O)[C@H](O)CNC(=O)c2cc(C)c(O)c(C)c2)O[C@@](CC2OC(C)(C)O[C@H]2c2cccc(NC(=O)c3ccc4cc[nH]c4c3)c2)(C(=O)O)C[C@@H]1O (stereo partly drawn)', 'nM', 1500),
  ('CC(=O)N[C@H]1[C@H]([C@H](O)[C@H](O)CNC(=O)c2cc(C)c(O)c(C)c2)O[C@@](CCN2CCOC[C@@]23CCN(C(=O)C(C)(C)C)C3)(C(=O)O)C[C@@H]1O', 'nM', 430),
  ('CC(=O)N[C@H]1[C@H]([C@H](O)[C@H](O)CNC(=O)c2cc(Br)[nH]n2)O[C@@](CCN2CCOC[C@@]23CCN(C(=O)OC(C)(C)C)C3)(C(=O)O)C[C@@H]1O', 'nM', 46);

* * *

# measurementTarget: Recombinant human CD33 protein (Homo sapiens (Human))
# assayComment: CD33 competitive binding assay for HTS drug screen (fluorescent multivalent sialic acid probe)
experimentalEndpoint: log10(EC50) (log10 of the value in µM)

INSERT INTO results (molecule, measurement) VALUES
  ('CC(=O)N[C@H]1[C@H]([C@H](O)[C@H](O)CNC(=O)c2cc(C)c(O)c(C)c2)O[C@@](C/C=C/c2ccccc2CNC(=O)OC(C)(C)C)(C(=O)O)C[C@@H]1O', 0.43),
  ('Cc1cc(C(=O)NC[C@@H](O)[C@@H](O)[C@@H]2O[C@@](OC3CCCCC3NC(=O)Cn3cc(Cn4ncc5ccccc5c4=O)nn3)(C(=O)O)C[C@H](O)[C@H]2NC(=O)Cn2cc(C3CCCCC3)nn2)cc(C)c1O (some centres unmarked)', 0.64),
  ('Cc1cc(C(=O)NC[C@@H](O)[C@@H](O)[C@@H]2O[C@@](CC3OC(C)(C)O[C@H]3c3cccc(NC(=O)OC(C)(C)C)c3)(C(=O)O)C[C@H](O)[C@H]2NC(=O)Cn2cc(C3CCCCC3)nn2)cc(C)c1O (some centres unmarked)', -0.29),
  ('CC(=O)N[C@H]1[C@H]([C@H](O)[C@H](O)CNC(=O)c2cc(C)c(O)c(C)c2)O[C@@](CC2OC(C)(C)O[C@@H]2c2ccc(C)c(N3CCCC3=O)c2)(C(=O)O)C[C@@H]1O (some centres unmarked)', -0.02),
  ('Cc1cc(C(=O)NC[C@@H](O)[C@@H](O)[C@@H]2O[C@@](OC3CCCCC3NC(=O)CN(C)C(=O)OCc3cccc(C(=O)NC4CC4)c3)(C(=O)O)C[C@H](O)[C@H]2NC(=O)Cn2cc(C3CCCCC3)nn2)cc(C)c1O (some centres unmarked)', 1.13);

* * *

# measurementTarget: Recombinant Human Siglec-3/CD33 protein (His-CD33) (Homo sapiens (Human))
# Sequence (P20138 18-259): as above
# assayComment: Differential scanning fluorimetry (DSF) thermal shift assay
# Assay type: binding
# conditionLabel: thermal melt shift of 0.5 μM CD33 protein with 50 μM compound
experimentalEndpoint: DSF (dTmD)

INSERT INTO results (compound, experimentalendpoint, measurement) VALUES
  ('CC(=O)N[C@H]1[C@H]([C@H](O)[C@H](O)CNC(=O)c2cc(C)c(OCCN)c(C)c2)O[C@@](CCN2CCCC[C@@]23CCN(C(=O)OC(C)(C)C)C3)(C(=O)O)C[C@@H]1O [A-027]', 'DSF (dTmD)', 10.4),
  ('CC(=O)N[C@H]1[C@H]([C@H](O)[C@H](O)CNC(=O)c2cc(C)c(O)c(C)c2)O[C@@](CCN2CCOC[C@@]23CCN(C(=O)C2(C)CCCCC2)C3)(C(=O)O)C[C@@H]1O [A-071]', 'DSF (dTmD)', 11.0),
  ('CC(=O)N[C@H]1[C@H]([C@H](O)[C@H](O)CNC(=O)c2cc(C)c(O)c(C)c2)O[C@@](CCN2CCCC[C@@]23CN(C(=O)OC(C)(C)C)C[C@H]3CO)(C(=O)O)C[C@@H]1O [A-029]', 'DSF (dTmD)', 2.1),
  ('CC(=O)N[C@H]1[C@H]([C@H](O)[C@H](O)CNC(=O)c2coc(C)c2)O[C@@](CCN2CCOC[C@@]23CCN(C(=O)OC(C)(C)C)C3)(C(=O)O)C[C@@H]1O [A-158]', 'DSF (dTmD)', 10.4),
  ('CC(=O)N[C@H]1[C@H]([C@H](O)[C@H](O)CNC(=O)c2ccc3ncccc3n2)O[C@@](CCN2CCOC[C@@]23CCN(C(=O)OC(C)(C)C)C3)(C(=O)O)C[C@@H]1O [A-114]', 'DSF (dTmD)', 12.4);

* * *

# measurementTarget: Recombinant human CD33 protein (Homo sapiens (Human), UniProt P20138)
# assayComment: CD33 competitive binding assay for HTS drug screen (fluorescent multivalent sialic acid probe)
pEC50: −log10 of the molar value.
Each entry gets f if its pEC50 stays under 6, and t if its pEC50 is 6 or above.

INSERT INTO measurements (molecule, cat) VALUES
  ('CC(=O)N[C@H]1[C@H]([C@H](O)[C@H](O)CNC(=O)c2cc(C)c(O)c(C)c2)O[C@@](CC2OC(C)(C)O[C@H]2c2cccc(NC(=O)OC(C)(C)C)c2)(C(=O)O)C[C@@H]1O (some centres unmarked) [A-296]', 't'),
  ('CC(=O)N[C@H]1[C@H]([C@H](O)[C@H](O)CNC(=O)c2cc(C)c(O)c(C)c2)O[C@@](CCN2CCC[C@@]23CCN(C(=O)OC(C)(C)C)C3)(C(=O)O)C[C@@H]1O [A-019]', 't'),
  ('CC(=O)N[C@H]1[C@H]([C@H](O)[C@H](O)CNC(=O)c2cc(C)c(O)c(C)c2)O[C@@](CC2OC(C)(C)O[C@H]2c2cccc(N3CCCC3=O)c2)(C(=O)O)C[C@@H]1O (some centres unmarked) [A-309]', 't'),
  ('CC(=O)N[C@H]1[C@H]([C@H](O)[C@H](O)CNC(=O)c2cc(C)c(O)c(C)c2)O[C@@](C/C=C/c2cccc(CN(C)C(=O)C3CCCOC3)c2)(C(=O)O)C[C@@H]1O (some centres unmarked) [A-292]', 'f'),
  ('CC(=O)N[C@H]1[C@H]([C@H](O)[C@H](O)CNC(=O)c2cc(C)c(O)c(C)c2)O[C@@](CCN2CCNC[C@@]23CCN(C(=O)NC(C)(C)C)C3)(C(=O)O)C[C@@H]1O [A-108]', 't');
